B1: SMG5 (parent)
chain: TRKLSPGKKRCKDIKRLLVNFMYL

Variants of: B1
procedure.text: protein stability index of a GFP-peptide fusion (GPS, HEK-293T) (PSI 1-6); higher = more stable;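 also: lentivirally expressed fusions sorted by FACS into six bins by GFP to DsRed ratio, PSI derived from sequencing read proportions per bin multiplied by bin number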
conditions.used: c terminus: a fixed tail appended

mutation.string: Y23D
protein stability index: 2.01
//
mutation.string: R10D
protein stability index: 2.02
//
mutation.string: K12V
protein stability index: 2.02
//
mutation.string: R10S
protein stability index: 2.03
//
mutation.string: G7E
protein stability index: 1.97
//
mutation.string: F21T
protein stability index: 1.99
//
mutation.string: R16K
protein stability index: 2.01
